target: PIP4K2C (Homo sapiens); experiment: HiBiT PIP4K2C degradation assay in MOLT-4 cells (endogenous PIP4K2C C-terminally tagged with HiBiT); format: cell-based; set-up: untagged in primary human PBMCs and monocyte-derived dendritic cells; details: 6 hours of incubation time, rather than 24 hours; MOLT-4, top concentration 10 micromolar; read-out: HiBIT-degradation MOLT4 PIP4k2C DC50 (6 hours, marked *)
Sequence (Q8TBX8 whole entry): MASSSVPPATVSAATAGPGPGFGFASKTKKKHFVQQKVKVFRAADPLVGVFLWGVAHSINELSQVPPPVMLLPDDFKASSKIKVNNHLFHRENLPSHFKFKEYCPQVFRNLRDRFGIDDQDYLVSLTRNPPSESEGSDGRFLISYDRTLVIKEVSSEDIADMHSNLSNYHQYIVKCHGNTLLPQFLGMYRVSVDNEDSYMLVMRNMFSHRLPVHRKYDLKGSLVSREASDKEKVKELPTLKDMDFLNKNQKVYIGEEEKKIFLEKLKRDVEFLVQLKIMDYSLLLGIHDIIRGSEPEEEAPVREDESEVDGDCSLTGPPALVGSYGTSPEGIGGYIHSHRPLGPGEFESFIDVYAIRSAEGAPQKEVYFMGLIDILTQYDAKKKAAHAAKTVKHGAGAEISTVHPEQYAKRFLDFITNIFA
assay_readout: DC50

Below: 4 compounds and their reported DC50.
O=C1CC[C@@H](Nc2ccc(N3CCC(N4CCC(C(=O)N[C@H]5CC[C@H](Nc6ncc(F)c(-c7cccc(-c8ccc[nH]c8=O)c7)n6)CC5)CC4)CC3)c(F)c2)C(=O)N1: > 5000 nM
Cc1ccc(=O)n(-c2cccc(-c3nc(N[C@H]4CC[C@H](NC(=O)[C@H]5CC[C@H](N6CCC(c7ccc(NC8CCC(=O)NC8=O)cc7F)CC6)CC5)CC4)ncc3F)c2)c1 (some centres unmarked): < 500 nM
O=C1CCC(Nc2ccc(N3CCN(CC4(O)CCN(C(=O)[C@H]5CC[C@H](Nc6ncc(F)c(-c7cccc(-n8ccccc8=O)c7)n6)CC5)CC4)CC3)c(F)c2)C(=O)N1 (some centres unmarked): < 500 nM
Cn1nc(C2CCC(=O)NC2=O)c2ccc(C3CCN(CCN4CCC(C(=O)N[C@H]5CC[C@H](Nc6ncc(F)c(-c7cccc(-n8ccccc8=O)c7)n6)CC5)CC4)CC3)cc21 (mixture of isomers): < 500 nM

Turning now to a further compound:
*Q* Reported DC50, compound O=C1CCC(Nc2ccc(N3CCN(C[C@H]4CC[C@H](C(=O)N5CCC(Nc6ncc(F)c(-c7cccc(N8CCCOC8=O)c7)n6)CC5)CC4)CC3)c(F)c2)C(=O)N1 (some centres unmarked) : ____
*A* < 500 nM
